MEASURED_TARGET: SARS-CoV-2 3CLpro (Severe acute respiratory syndrome coronavirus 2)
ASSAY_NAME: biochemical
CONDITION_DESCRIPTION: IC50 (μM), SARS-CoV-2 3CLPro assay
Label yes when IC50 is strictly below 0.07 µM; otherwise label no.

> print(dat)
                                    compound                           measured.target  label
 1  CC(C)C[C@H](NC(=O)c1cc2ccccc2[nH]1)C(=O)NN(CCC(N)=O)C(=O)[C@@H](F)Cl (single isomer, unassigned)  SARS-CoV-2 3CLpro (Severe acute respiratory syndrome coronavirus 2)    yes
 2  CC(C)C[C@H](NC(=O)c1nc2cc(Cl)ccc2[nH]1)C(=O)NN(CCC(N)=O)C(=O)[C@H](F)Cl (racemic)  SARS-CoV-2 3CLpro (Severe acute respiratory syndrome coronavirus 2)    yes
 3  CC(C)C[C@H](NC(=O)c1cc2ccccc2[nH]1)C(=O)NN(CC1CCNC1=O)C(=O)CCl (mixture of isomers)  SARS-CoV-2 3CLpro (Severe acute respiratory syndrome coronavirus 2)    yes
 4  NC(=O)CCN(NC(=O)[C@H](CC1CC1)NC(=O)c1cc2ccccc2[nH]1)C(=O)C(F)Cl (mixture of isomers)  SARS-CoV-2 3CLpro (Severe acute respiratory syndrome coronavirus 2)    yes
 5  CC(C)C[C@H](NC(=O)c1cc2ccccc2[nH]1)C(=O)NN(CC1CCNC1=O)C(=O)CF (stereo partly shown)  SARS-CoV-2 3CLpro (Severe acute respiratory syndrome coronavirus 2)     no
 6  COc1cccc(NCC(=O)N[C@@H](CC(C)C)C(=O)NN(CCC(N)=O)C(=O)[C@@H](F)Cl)c1 (single isomer, unassigned)  SARS-CoV-2 3CLpro (Severe acute respiratory syndrome coronavirus 2)    yes
 7  NC(=O)CCN(NC(=O)[C@H](CC12CC(C1)C2)NC(=O)c1nc2ccccc2[nH]1)C(=O)C(F)Cl (mixture of isomers)  SARS-CoV-2 3CLpro (Severe acute respiratory syndrome coronavirus 2)    yes
 8  Cc1cc(C(=O)N[C@@H](CC2(C)CC2)C(=O)NN(C[C@@H]2CCNC2=O)C(=O)[C@H](F)Cl)no1  SARS-CoV-2 3CLpro (Severe acute respiratory syndrome coronavirus 2)    yes
 9  CC(C)C[C@H](NC(=O)c1cc2cc(F)ccc2[nH]1)C(=O)NN(CCC(N)=O)C(=O)[C@@H](F)Cl (racemic)  SARS-CoV-2 3CLpro (Severe acute respiratory syndrome coronavirus 2)    yes
10  CC(C)C[C@H](NC(=O)c1cc2ccccc2[nH]1)C(=O)NN(C[C@@H]1CCNC1=O)C(=O)CF (single isomer, unassigned)  SARS-CoV-2 3CLpro (Severe acute respiratory syndrome coronavirus 2)     no
11  Cc1cc(C(=O)NC(CC(C)C)C(=O)NN(CCC(N)=O)C(=O)C(F)Cl)no1 (racemic)  SARS-CoV-2 3CLpro (Severe acute respiratory syndrome coronavirus 2)     no
12  CC(C)(C)C[C@H](NC(=O)c1cnccn1)C(=O)NN(CCC(N)=O)C(=O)C(F)Cl (stereo partly shown)  SARS-CoV-2 3CLpro (Severe acute respiratory syndrome coronavirus 2)     no
13  CC(C)C[C@H](NC(=O)c1cc2cc(F)ccc2[nH]1)C(=O)NN(CCC(N)=O)C(=O)[C@H](F)Cl (racemic)  SARS-CoV-2 3CLpro (Severe acute respiratory syndrome coronavirus 2)    yes
